Entry source: PubChem BioAssay (NCI)

For each entry below, report its TGI value.
Tested on: ACHN renal
Assay: NCI tumour cell line growth inhibition, 48 h

Examples with answers:
Exercise: // returns reported TGI for input O=C(C=P(c1ccccc1)(c1ccccc1)c1ccccc1)CCl
Key: 1.94 µM

Exercise: Fill in: TGI of CC1(C)N=C(N)N=C(N)N1c1ccc(OCCCNC(=O)Nc2cccc(S(=O)(=O)F)c2)c(Cl)c1 is ___
Key: > 100 µM

Exercise: What measured TGI goes with COc1ccc2c(C)c(Oc3c(Cl)c(Cl)c(O)c(C#N)c3C#N)oc2c1 ?
Key: > 100 µM

Dear colleague, could you send me TGI for each of the items below? Thanks.
1. NS(=O)(=O)c1ccc(Nc2c3ccccc3nc3c(C(=O)N4CCN(CCO)CC4)cccc23)cc1
2. CSc1nn(C)cc2ncnc1-2
3. CC(=O)Nc1ccc(C(=O)NN2C(=O)CSC2c2ccc(O)cc2)cc1 (stereo not drawn)

Key:
> 100 µM
> 100 µM
> 100 µM
